- Format: physicochemical
- TEST_CONTEXT: stored at room temperature (21-25° C.), day 150
- Description: At each time period, 0.05 g of powder was dissolved in 10 ml-15 of ethanol, diluted to fall within the analytical range, and injected into the LCMSMS for analysis.
Please note: criterion met applies when Stability in Powder Concentrate (content by LCMSMS) is 0.07 mg/g powder or greater, and criterion not met applies otherwise.

[
  {
    "COMPOUND": "CCCCCc1cc(O)c2c(c1)OC1(C)CCC3C1C2C3(C)C (stereo not drawn)",
    "ASSIGNED_LABEL": "criterion not met"
  },
  {
    "COMPOUND": "Cc1c(C)c2c(c(C)c1O)CC[C@@](C)(CCC[C@H](C)CCC[C@H](C)CCCC(C)C)O2",
    "ASSIGNED_LABEL": "criterion met"
  },
  {
    "COMPOUND": "C=C(C)[C@@H]1CCC(C)=C[C@H]1c1c(O)cc(CCCCC)cc1O [CBD, cannabidiol, reference compound]",
    "ASSIGNED_LABEL": "criterion met"
  },
  {
    "COMPOUND": "CCCCCc1cc2c(c(O)c1C(=O)O)[C@@H]1C=C(C)CC[C@H]1C(C)(C)O2 [D9 THCA, delta-9-tetrahydrocannabinolic acid]",
    "ASSIGNED_LABEL": "criterion met"
  },
  {
    "COMPOUND": "Cc1c(C)c2c(c(C)c1OC(=O)CCC(=O)O)CC[C@@](C)(CCC[C@H](C)CCC[C@H](C)CCCC(C)C)O2 [α-Tocopheryl succinate]",
    "ASSIGNED_LABEL": "criterion met"
  }
]
